The entries below are paired with their reported protein stability index.
B1: TAF7L (parent)
chain: PDVENEVKRLLRSDAEAVSTRWEV

Variants of: B1
experimentalProtocol: protein stability index of a GFP-peptide fusion (GPS, HEK-293T) (PSI 1-6); higher = more stable;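 also: lentivirally expressed fusions sorted by FACS into six bins by GFP to DsRed ratio, PSI derived from sequencing read proportions per bin multiplied by bin number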
condition: c terminus: a fixed tail appended
Write the number on its own, no unit after it.

> print(dat)
   mutant          measurementname  result
1     N5S  protein stability index    2.03
2    A15D  protein stability index    4.09
3    V18E  protein stability index    4.54
4     N5M  protein stability index    2.81
5    S13P  protein stability index    4.71

INPUT: Provide only the value of recorded protein stability index for V24T
OUTPUT: 4.31

INPUT: Provide only the value of recorded protein stability index for W22A
OUTPUT: 5.26

INPUT: Provide only the value of recorded protein stability index for K8W
OUTPUT: 2.19

INPUT: Provide only the value of recorded protein stability index for V7G
OUTPUT: 4.2

INPUT: Provide only the value of recorded protein stability index for V7S
OUTPUT: 3.56

INPUT: Provide only the value of recorded protein stability index for E16I
OUTPUT: 2.08
